Recorded below: MIC, system Pityrosporum ovale.

- CCCCCCCCCCc1cc(C(=O)C(F)(F)F)c(O)cc1O [W]: 80 µg/mL
- CCc1c(O)ccc(C(=O)C(F)(F)F)c1O [C, reference compound]: > 80 µg/mL
- COc1ccc(C(=O)C(F)(F)F)c(OC)c1 [D, 2,4-Dimethoxy-trifluoroacetophenone, reference compound]: > 80 µg/mL
- CC(C)Cc1c(O)ccc(C(=O)C(F)(F)F)c1O [F]: 80 µg/mL
- CCc1cc(C(=O)C(F)(F)F)c(O)cc1O [B, reference compound]: 80 µg/mL
- Cc1c(O)ccc(C(=O)C(F)(F)C(F)(F)F)c1O [V]: 20 µg/mL
- O=C(c1ccc(O)cc1O)C(F)(F)F [A, 2,4-Dihydroxy-trifluoroacetophenone, reference compound]: 80 µg/mL
- CC1CCC(c2c(O)ccc(C(=O)C(F)(F)F)c2O)CC1 (stereo not drawn) [H]: > 80 µg/mL

Moving on to another compound below.
Identify MIC associated with the compound O=C(c1cc(Cl)c(O)cc1O)C(F)(F)F [U]
10 µg/mL

###

- ASSAYED SYSTEM: glucose-6-phosphate-dehydrogenase
- TEST SUMMARY: Inhibition of glucose-6-phosphate-dehydrogenase (G6PDH)
- Assay type: biochemical
- EXPERIMENTAL PARAMETERS: 25° C. for 5 minutes preincubation
QUANTITY KIND: G6PDH-inhibition Ed50, Immediate Inhibition (µg/mL)
The figure you give is taken to be in µg/mL; do not add the unit.

- CC(C)Cc1c(O)ccc(C(=O)C(F)(F)F)c1O: 37.7
- CC(C)c1c(O)ccc(C(=O)C(F)(F)F)c1O: 14.8
- CCc1cc(C(=O)C(F)(F)F)c(O)cc1O [B, reference compound]: 34.5
- CC(C)c1c(O)c(Cc2cc(C(=O)C(F)(F)F)c(O)c(C(C)C)c2O)cc(C(=O)C(F)(F)F)c1O: 0.58

Give the reported G6PDH-inhibition Ed50, Immediate Inhibition for this compound. CCc1c(O)ccc(C(=O)C(F)(F)F)c1O [C, reference compound]
37.5

###

Measured MIC values are reported for all entries that follow.
- Tested on: Staphylococcus aureus SG 511
- TEST SUMMARY: Serial dilution test
- Format: cell-based
- EXPERIMENTAL PARAMETERS: Staphylococcus aureus, SG511, 18-20 hours at 37° C., read-out: MIC, S.D.T., Staphylococcus aureus SG 511
Answer in µg/mL, number only, no unit symbol.

For orientation, consider the following solved cases.
* CCCCCCCCCc1cc(C(=O)C(F)(F)F)c(O)cc1O [J] | 5
* O=C(c1ccc(O)c(C2CCCCCCCCCCC2)c1O)C(F)(F)F [L] | 0.31

# evaluate next
# assay system Staphylococcus aureus SG 511: give MIC of CCc1cc(C(=O)C(F)(F)F)c(O)cc1O [B, reference compound]
20

###

- Test system: Pityrosporum ovale CBS 1878
- TEST SUMMARY: Agar diffusion test for Pityrosporum ovale CBS 1878
- Type: cell-based
- EXPERIMENTAL PARAMETERS: Malassezia furfur, CBS1878, 168 h, 7 days at 27° C., read-out: MIC, A.D.T., Pityrosporum ovale
Parameter: MIC. Scope: all listed entries.
Write the answer as a number in mg/L, unit excluded.

• O=C(c1ccc(O)cc1O)C(F)(F)F [A, 2,4-Dihydroxy-trifluoroacetophenone, reference compound] = 1000
• CCCCCCCCCCc1cc(C(=O)C(F)(F)F)c(O)cc1O = 250

# return MIC of CCc1c(O)ccc(C(=O)C(F)(F)F)c1O [C, reference compound] (system: Pityrosporum ovale CBS 1878)
1000

Please indicate recorded MIC of O=C(c1cc(Cl)c(O)cc1O)C(F)(F)F measured with Pityrosporum ovale CBS 1878.
1000

###

# MIC per entry
- System: Streptococcus Aronson
- TEST SUMMARY: Serial dilution test
- Assay type: cell-based
- EXPERIMENTAL PARAMETERS: Streptococcus, 18-20 hours at 37° C., read-out: MIC, S.D.T., Streptococcus Aronson
Report the value in µg/mL with no unit label.

- CC1CCC(c2c(O)ccc(C(=O)C(F)(F)F)c2O)CC1 (centres unmarked): 1.25

In one line, give reported MIC of the entry Cc1c(O)c(Cc2cc(C(=O)C(F)(F)F)c(O)c(C)c2O)cc(C(=O)C(F)(F)F)c1O .
1.25

Please report MIC for the following compound: CC(C)c1c(O)ccc(C(=O)C(F)(F)F)c1O
1.25

Provide measured MIC value, entry: CC(C)Cc1c(O)ccc(C(=O)C(F)(F)F)c1O
1.25

Write down MIC measured for item CCc1cc(C(=O)C(F)(F)F)c(O)cc1O [B, reference compound]
20

###

- Tested on: Streptococcus Aronson
- TEST SUMMARY: Serial dilution test
- Assay type: cell-based
- EXPERIMENTAL PARAMETERS: Streptococcus, 18-20 hours at 37° C., read-out: MIC, S.D.T., Streptococcus Aronson
QUANTITY KIND: MIC (µg/mL)
Enter your answer as a number in µg/mL; do not include the unit.

Report measured MIC; entry is CCCCCCCCCc1cc(C(=O)C(F)(F)F)c(O)cc1O [J]
5

Supply measured MIC of O=C(c1ccc(O)cc1O)C(F)(F)F [A, 2,4-Dihydroxy-trifluoroacetophenone, reference compound] in your reply.
80

Please give the documented MIC of O=C(c1ccc(O)c(C2CCCC2)c1O)C(F)(F)F [N]
1.25

Indicate its recorded MIC; the molecule in question is CCc1c(O)ccc(C(=O)C(F)(F)F)c1O [C, reference compound]
5

Tell me MIC reported for O=C(c1ccc(O)c(C2CCCCCC2)c1O)C(F)(F)F [O]
0.31

State its MIC: O=C(c1ccc(O)c(C2CCCCCCCCCCC2)c1O)C(F)(F)F [L]
0.31

###

- Test system: Streptococcus Aronson
- TEST SUMMARY: Agar diffusion test (hole-test)
- Type: cell-based
- EXPERIMENTAL PARAMETERS: 18-20 hours at 37° C., read-out: MIC, A.D.T., Streptococcus Aronson
QUANTITY KIND: MIC

Consider the compound CC(C)CCc1cc(C(=O)C(F)(F)F)c(O)cc1O and give its recorded MIC.
≤ 15.6 µg/mL

// Input: O=C(c1ccc(O)c(C2CCCC2)c1O)C(F)(F)F . Output its MIC only.
≤ 15.6 µg/mL

Report MIC for CCCCCCc1cc(C(=O)C(F)(F)F)c(O)cc1O
≤ 15.6 µg/mL

Answer with the recorded MIC of CC(C)c1c(O)ccc(C(=O)C(F)(F)F)c1O only.
≤ 15.6 µg/mL

Name the recorded MIC of the compound listed here: COc1ccc(C(=O)C(F)(F)F)c(OC)c1 [D, 2,4-Dimethoxy-trifluoroacetophenone, reference compound]
> 4000 µg/mL

###

- Tested on: Staphylococcus aureus SG 511
- TEST SUMMARY: Serial dilution test
- Type: cell-based
- EXPERIMENTAL PARAMETERS: Staphylococcus aureus, SG511, 18-20 hours at 37° C., read-out: MIC, S.D.T., Staphylococcus aureus SG 511
QUANTITY KIND: MIC (µg/mL)
Return type: number; implicit unit µg/mL.

Previously resolved entries follow.
- O=C(c1ccc(O)cc1O)C(F)(F)F [A, 2,4-Dihydroxy-trifluoroacetophenone, reference compound]: 80
- CCCCCCc1cc(C(=O)C(F)(F)F)c(O)cc1O: 1.25
- CC(C)CCc1cc(C(=O)C(F)(F)F)c(O)cc1O: 0.31
- CCc1c(O)ccc(C(=O)C(F)(F)F)c1O [C, reference compound]: 5
- O=C(c1ccc(O)c(C2CCCCCC2)c1O)C(F)(F)F: 0.31

Jot down MIC (Staphylococcus aureus SG 511) of CC(C)c1c(O)ccc(C(=O)C(F)(F)F)c1O .
1.25

###

- Test system: Streptococcus pyogenes At CC 86 68
- TEST SUMMARY: Agar diffusion test (hole-test)
- Assay type: cell-based
- EXPERIMENTAL PARAMETERS: ATCC8668, 18-20 hours at 37° C., read-out: MIC, A.D.T., Streptococcus pyogenes
- Experimental: The inhibitory effect on bacteria and fungi was examined by the serial dilution test and the agar diffusion test (hole-test). As bacteria were used: Staphylococcus aureus SG 511, Streptococcus Aronson, Streptococcus pyogenes At CC 86 68; as fungi: Candida albicans AT CC 10231, Trichophyton mentagrophytes AT CC 9129 and Aspergillus niger. 2. Glucose agar: for Sc. […] The diameter of the area of inhibition in mm was measured after having deducted the diameter of the hole.
# MIC annotations

- CCCCCCCCCc1cc(C(=O)C(F)(F)F)c(O)cc1O [J]: ≤ 15.6 µg/mL
- CC(C)CCc1cc(C(=O)C(F)(F)F)c(O)cc1O [G]: ≤ 15.6 µg/mL
- Cc1c(O)c(Cc2cc(C(=O)C(F)(F)F)c(O)c(C)c2O)cc(C(=O)C(F)(F)F)c1O [S]: ≤ 15.6 µg/mL
- CC(C)c1cc(C(=O)C(F)(F)F)c(O)c(Cc2c(O)c(C(=O)C(F)(F)F)cc(C(C)C)c2O)c1O [Compound Q]: ≤ 15.6 µg/mL
- CCc1c(O)ccc(C(=O)C(F)(F)F)c1O [C, reference compound]: 62.5 µg/mL

Provide the reported MIC (system: Streptococcus pyogenes At CC 86 68) for CC1CC(C)CC(c2cc(C(=O)C(F)(F)F)c(O)cc2O)C1 (stereo not drawn) [I]
≤ 15.6 µg/mL

Would you please give the reported MIC of CC(C)Cc1c(O)ccc(C(=O)C(F)(F)F)c1O [F] with Streptococcus pyogenes At CC 86 68?
≤ 15.6 µg/mL

Determine reported MIC for O=C(c1ccc(O)c(C2CCCCCC2)c1O)C(F)(F)F [O] ; test system: Streptococcus pyogenes At CC 86 68.
≤ 15.6 µg/mL

Find the measured MIC of COc1ccc(C(=O)C(F)(F)F)c(OC)c1 [D, 2,4-Dimethoxy-trifluoroacetophenone, reference compound] with Streptococcus pyogenes At CC 86 68 as test system.
> 4000 µg/mL
